Biological target: Recombinant human TNFRI, disulfide-linked homodimer (human, UniProt P19438 30-455)
Assay: SPR; BIAcore 3000; peptide serially diluted and injected; KD by BIAcore kinetic evaluation Ver. 4.1; method by refs 48, 49
Conditions: both partners purified
Parameter Measured: Kd (nM)
Give a bare numeral; the unit nM is implied.

Item MWQRPSSWIEGRLLTHTISRIAVSYQTKVNLL (P16, TNF α segment of amino acid residues 75-94, human; also called recombinant peptide RMP16) [RMP16, recombinant TNF α-derived polypeptide] : provide Kd 21.3

Values from paper PMC4559766
